Assay: Pharmacokinetic analysis (oral bioavailability, elimination half-life) in the rat
Format: in vivo
Settings: oral administration, 8 mg/kg dose, HPLC-MS
# label = MET if Oral Bioavailability (rat, % F) >= 9 % F else NOT MET

{"columns": ["Compound", "Classification"],
 "data": [
  ["CC1CNC(C2CCCCC2)C(=O)N(C)C(C)C(=O)NC(Cc2ccc(O)cc2)C(=O)NCCCC2CCCCC2O1 (mixture of isomers) [Compound 829]", "NOT MET"],
  ["CC(C)C[C@H]1NC(=O)[C@@H](C)N(C)C(=O)[C@H](C2CCCCC2)NC[C@H]2CCc3cccc(c3O2)CCCNC1=O [Compound 801]", "NOT MET"],
  ["CC(C)C[C@H]1NC(=O)[C@@H](C)N(C)C(=O)[C@H](C2CC2)NCCOc2c(F)cccc2CCCNC1=O [Compound 813]", "NOT MET"],
  ["CC(C)C[C@H]1NC(=O)[C@@H](C)N(C)C(=O)[C@H](C2CC2)NCCOc2cc(F)ccc2CCCNC1=O [Compound 810]", "MET"],
  ["CC1CNC(C2CC2)C(=O)N(C)C(C)C(=O)NC(CC2CCCCC2)C(=O)NCCCC2CCCCC2O1 (mixture of isomers) [Compound 831]", "MET"],
  ["CC(C)C[C@H]1NC(=O)[C@@H](C)N(C)C(=O)[C@H](C2CC2)NC[C@@H](C)Oc2ccccc2CC[C@H](C)NC1=O [Compound 807]", "MET"],
  ["C[C@@H]1CN[C@@H](C2CC2)C(=O)N(C)[C@H](C)C(=O)N[C@H](Cc2ccc(F)cc2)C(=O)NCCCc2ncccc2O1 [Compound 1027]", "NOT MET"],
  ["CC1CNC(C2CC2)C(=O)N(C)C(C)C(=O)NC(Cc2ccc(O)cc2)C(=O)NCCCC2CCCCC2O1 (mixture of isomers) [Compound 826]", "MET"],
  ["CC1NC(C2CC2)C(=O)N(C)C(C)C(=O)NC(Cc2ccc(O)cc2)C(=O)NCCCc2ccccc2OC1C (stereo not shown) [Compound 820]", "MET"],
  ["CC(C)CC1NC(=O)C(C)N(C)C(=O)C(C2CC2)NCC(C)OC2CCCCC2CCCNC1=O (mixture of isomers) [Compound 825]", "MET"],
  ["C[C@@H]1CN[C@@H](C2CC2)C(=O)N(C)[C@H](C)C(=O)N[C@H](Cc2ccc(F)cc2)C(=O)NCCCc2ccc(F)cc2O1 [Compound 854]", "MET"]
]}

###

Here the recorded Oral Bioavailability (rat, % F) is given for each entry.
Test: Pharmacokinetic analysis (oral bioavailability, elimination half-life) in the rat
Type: in vivo
Details: oral administration, 8 mg/kg dose, HPLC-MS
Value Kind: Oral Bioavailability (rat, % F)

{"columns": ["Compound", "Value Kind", "Readout Value"],
 "data": [
  ["C[C@@H]1CN[C@@H](C2CC2)C(=O)N(C)[C@H](C)C(=O)N[C@H](Cc2ccc(O)cc2)C(=O)N[C@@H](C)CCc2ccccc2O1 [Compound 808]", "Oral Bioavailability (rat, % F)", 18],
  ["CC(C)C[C@H]1NC(=O)[C@@H](C)N(C)C(=O)[C@H](C2CC2)NC[C@H]2CCc3cccc(c3O2)CCCNC1=O [Compound 802]", "Oral Bioavailability (rat, % F)", 26],
  ["C[C@@H]1CN[C@@H](C2CC2)C(=O)N(C)[C@H](C)C(=O)N[C@H](Cc2ccc(Cl)cc2)C(=O)NCCCc2ccc(F)cc2O1 [Compound 877]", "Oral Bioavailability (rat, % F)", 15],
  ["CC(C)C[C@H]1NC(=O)[C@@H](C)N(C)C(=O)[C@H](C2CC2)NC[C@@H](C)Oc2ccccc2CCCNC1=O [Compound 968]", "Oral Bioavailability (rat, % F)", 26],
  ["CC(C)CC1NC(=O)C(C)N(C)C(=O)C(C2CC2)NC(C)C(C)Oc2ccccc2CCCNC1=O (stereo not drawn) [Compound 819]", "Oral Bioavailability (rat, % F)", 12],
  ["C[C@@H]1CN[C@@H](C2CC2)C(=O)N(C)[C@H](C)C(=O)N[C@H](Cc2ccc(F)cc2)C(=O)N[C@@H](C)CCc2ccccc2O1 [Compound 1011]", "Oral Bioavailability (rat, % F)", 22]
]}
